Field: GI50 in indicated cell line: VERO. Provide a value for each of the compounds that follow.
System: VERO cells
assay-summary: Cell growth inhibition bioassay (sulforhodamine B)
Type: cell-based, African Green Monkey
condition-notes: 48 h, SRB

1) CC(C)(C)C=NNc1ncnc2sc3c(c12)CCCC3	9.7 µg/mL
2) Fc1ccc(C=NNc2ncnc3sc4c(c23)CCCC4)cc1	4.2 µg/mL
3) N#Cc1ccc(C=NNc2ncnc3sc4c(c23)CCCC4)cc1	>62.5 µg/mL
4) Cc1ccc(C=NNc2ncnc3sc4c(c23)CCCC4)cc1	10.0 µg/mL
5) FC(F)(F)c1ccccc1C=NNc1ncnc2sc3c(c12)CCCC3	1.7 µg/mL

// for each compound below, give its GI50 in indicated cell line: VERO
1. O=[N+]([O-])c1ccccc1C=NNc1ncnc2sc3c(c12)CCCC3
2. C(=Cc1ccccc1)C=NNc1ncnc2sc3c(c12)CCCC3
3. CC(C)=NNc1ncnc2sc3c(c12)CCCC3
4. NNc1ncnc2sc3c(c12)CCCC3

1: >62.5 µg/mL; 2: 0.6 µg/mL; 3: 3.7 µg/mL; 4: 2.5 µg/mL

----------
Test system: DU145 cells
assay-summary: Cell growth inhibition bioassay (sulforhodamine B)
Type: cell-based, human
condition-notes: 48 h, SRB
# label = True if GI50 in indicated cell line: DU145 < 3 µg/mL else False

Solved entries:
1) CC(C)(C)C=NNc1ncnc2sc3c(c12)CCCC3	False
2) FC(F)(F)c1ccccc1C=NNc1ncnc2sc3c(c12)CCCC3	True
3) N#Cc1ccc(C=NNc2ncnc3sc4c(c23)CCCC4)cc1	False
4) Cc1ccc(C=NNc2ncnc3sc4c(c23)CCCC4)cc1	False
5) O=[N+]([O-])c1ccccc1C=NNc1ncnc2sc3c(c12)CCCC3	False
6) Fc1ccc(C=NNc2ncnc3sc4c(c23)CCCC4)cc1	False

Check if GI50 in indicated cell line: DU145 falls below 3 µg/mL for `NNc1ncnc2sc3c(c12)CCCC3` .
False

Check if GI50 in indicated cell line: DU145 falls below 3 µg/mL for `C(=Cc1ccccc1)C=NNc1ncnc2sc3c(c12)CCCC3` .
True

----------
Test system: peritoneal macrophages
assay-summary: Toxicity to peritoneal macrophages (Trypan Blue count)
Format: cell-based, BALB/C mouse
condition-notes: Table 8b; read-out: Cytotoxicity Macrophages IC50
measurement-name: IC50 (µM)
Numbers only, in µM.

// returns reported IC50 for input NNc1ncnc2sc3c(c12)CCCC3 [PC]
7.4

----------
Field: MIC. Provide a value for each of the compounds that follow.
System: M. tuberculosis H37Rv
assay-summary: Conventional aerobic (MABA) culture assay, luminescence MIC
Assay type: cell-based, Mycobacterium tuberculosis
condition-notes: Mycobacterium tuberculosis, 168 h; aerobic, 7 days, H37Rv
Numbers only, in mg/L.

// for each compound below, give its MIC
1. CO[C@H]1/C=C/O[C@@]2(C)Oc3c(C)c(O)c4c(O)c(c(/C=N/N5CCN(C)CC5)c(O)c4c3C2=O)NC(=O)/C(C)=C\C=C\[C@H](C)[C@H](O)[C@@H](C)[C@@H](O)[C@@H](C)[C@H](OC(C)=O)[C@@H]1C [Rifampin, reference compound]
2. C(=N/Nc1ncnc2sc3c(c12)CCCC3)/c1ccco1
3. C(=N/Nc1ncnc2sc3c(c12)CCCC3)/c1ccccc1

1. 0.09
2. 11.9
3. 23.4

----------
assay-summary: Cytotoxicity on VERO cells (MTT), anti-T. cruzi study
condition-notes: African green monkey, VERO cells, Cytotoxicity VERO Lab B, Lab B
measurement-name: IC50 (µg/mL)
Give bare numbers, in µg/mL.

Some solved cases for reference:
1) C(=N/Nc1ncnc2sc3c(c12)CCCC3)/c1ccc2c(c1)OCO2	6
2) C(=N/Nc1ncnc2sc3c(c12)CCCC3)/c1ccc[nH]1	1
3) C(=N/Nc1ncnc2sc3c(c12)CCCC3)/c1ccccc1	8
4) Brc1ccc(/C=N\Nc2ncnc3sc4c(c23)CCCC4)cc1	6

// for each molecule below, give its IC50
1. CCC(CC)=NNc1ncnc2sc3c(c12)CCCC3
2. Oc1ccc(/C=N\Nc2ncnc3sc4c(c23)CCCC4)cc1
3. COc1ccc(/C=N\Nc2ncnc3sc4c(c23)CCCC4)cc1
4. CCc1ccc(/C=N\Nc2ncnc3sc4c(c23)CCCC4)cc1

1. 6
2. 4
3. 6
4. 4

// returns reported IC50 for input `C(=N/Nc1ncnc2sc3c(c12)CCCC3)/c1cccc2ccccc12`
1

----------
assay-summary: Cytotoxicity on VERO cells (MTT), anti-T. cruzi study
condition-notes: African green monkey, VERO cells, Cytotoxicity VERO Lab B, Lab B
measurement-name: IC50 (µg/mL)
One number for each entry, in µg/mL.

Some solved cases for reference:
1. CC(C)(C)c1ccc(/C=N\Nc2ncnc3sc4c(c23)CCCC4)cc1	5
2. C=CCOc1cc(/C=N\Nc2ncnc3sc4c(c23)CCCC4)cc(OCC=C)c1Br	3
3. Fc1ccccc1/C=N\Nc1ncnc2sc3c(c12)CCCC3	6
4. C/C(=N/Nc1ncnc2sc3c(c12)CCCC3)c1ccccc1	4
5. COc1cc(/C=N\Nc2ncnc3sc4c(c23)CCCC4)cc(OC)c1OC	11

// for each compound below, give its IC50
1. C(=N/Nc1ncnc2sc3c(c12)CCCC3)/c1ccc2ccccc2c1
2. Clc1ccc(/C=N\Nc2ncnc3sc4c(c23)CCCC4)cc1
3. FC(F)(F)c1ccc(/C=N\Nc2ncnc3sc4c(c23)CCCC4)cc1
4. Brc1ccccc1/C=N\Nc1ncnc2sc3c(c12)CCCC3
5. C(=N/Nc1ncnc2sc3c(c12)CCCC3)/c1ccco1

5
7
3
3
3

----------
Tested on: VERO cells
assay-summary: Cell growth inhibition bioassay (sulforhodamine B)
Type: cell-based, African Green Monkey
condition-notes: Chlorocebus sabaeus, Vero; 48 h, SRB; read-out: GI50 in indicated cell line: VERO
measurement-name: GI50 (µg/mL)
Numbers only, in µg/mL.

Some solved cases for reference:
1) Brc1ccc(/C=N\Nc2ncnc3sc4c(c23)CCCC4)cc1	2.8
2) C(=N/Nc1ncnc2sc3c(c12)CCCC3)/c1ccncc1	38.3
3) C=CCOc1cc(/C=N\Nc2ncnc3sc4c(c23)CCCC4)cc(OCC=C)c1Br	2.2
4) C(=N/Nc1ncnc2sc3c(c12)CCCC3)/c1ccc2ccccc2c1	2.9

// for each molecule below, give its GI50
1. CC(C)c1ccc(/C=N\Nc2ncnc3sc4c(c23)CCCC4)cc1
2. Clc1ccccc1/C=N\Nc1ncnc2sc3c(c12)CCCC3
3. COc1ccc(/C=N\Nc2ncnc3sc4c(c23)CCCC4)cc1
4. Brc1ccccc1/C=N\Nc1ncnc2sc3c(c12)CCCC3

1: 2.1; 2: 9.9; 3: 6.4; 4: 2

----------
Tested on: VERO cell
assay-summary: Cytotoxicity VERO cell (Table 6)
condition-notes: Table 6
measurement-name: Cytotoxicity VERO cell (µg/mL)
Numbers only, in µg/mL.

Some solved cases for reference:
1) CC(C)(C)C=NNc1ncnc2sc3c(c12)CCCC3	29.6
2) NNc1ncnc2sc3c(c12)CCCC3	26.9
3) C(=Cc1ccccc1)C=NNc1ncnc2sc3c(c12)CCCC3	1.2

// for each molecule below, give its Cytotoxicity VERO cell
1. FC(F)(F)c1ccccc1C=NNc1ncnc2sc3c(c12)CCCC3
2. Fc1ccc(C=NNc2ncnc3sc4c(c23)CCCC4)cc1

7.6
12.8

----------
System: L. amazonensis
condition-notes: compounds 5 mg/kg/day, Glucantime 33 mg/kg/day, intralesional
measurement-name: Lesion diameter (mm)
Numbers only, in mm.

Some solved cases for reference:
1. COCOc1cc(O)c(C(=O)/C=C/c2cc(OC)c(OC)c(OC)c2)c(OC)c1 [Compound I-46]	5.1
2. C=CCOc1cc(OC)c(C(=O)/C=C/c2ccccn2)c(OCC=C)c1 [Compound I-27]	4.1
3. COCOc1cc(OC)c(C(=O)/C=C/c2ccc(OC)cc2)c(OCOC)c1 [Compound I-44]	4.7

// for each compound below, give its Lesion diameter
1. COCOc1cc(OC)c(C(=O)/C=C/c2ccc3c(c2)OCO3)c(OCOC)c1 [Compound I-45]
2. C=CCOc1cc(/C=C/C(=O)c2c(O)cc(O)cc2OC)cc(OCC=C)c1Br [Compound I-42]

[4.6, 4.6]

----------
Tested on: DU145 cells
assay-summary: Cell growth inhibition bioassay (sulforhodamine B)
Type: cell-based, human
condition-notes: Homo sapiens, DU-145; 48 h, SRB; read-out: GI50 in indicated cell line: DU145
Field: GI50. Provide a value for each of the compounds that follow.
One number for each entry, in µg/mL.

Some solved cases for reference:
1) Brc1ccccc1/C=N\Nc1ncnc2sc3c(c12)CCCC3 [II-31]	2.8
2) CCc1ccc(/C=N\Nc2ncnc3sc4c(c23)CCCC4)cc1 [II-06]	19.8
3) COc1ccc(/C=N\Nc2ncnc3sc4c(c23)CCCC4)c(OC)c1 [II-13]	7.4
4) Oc1ccc(/C=N\Nc2ncnc3sc4c(c23)CCCC4)cc1 [II-09]	6.8
5) C(=N/Nc1ncnc2sc3c(c12)CCCC3)/c1ccccc1 [II-01]	6.2

// for each compound below, give its GI50
1. COc1cccc(/C=N\Nc2ncnc3sc4c(c23)CCCC4)c1 [II-11]
2. Brc1ccc(/C=N\Nc2ncnc3sc4c(c23)CCCC4)cc1 [II-30]
3. Clc1ccc(/C=N\Nc2ncnc3sc4c(c23)CCCC4)cc1 [II-28]
4. C(=N/Nc1ncnc2sc3c(c12)CCCC3)/c1ccccn1 [II-21]
5. Clc1ccccc1/C=N\Nc1ncnc2sc3c(c12)CCCC3 [II-29]
6. C(=N/Nc1ncnc2sc3c(c12)CCCC3)/c1ccco1 [II-18]

1: 6; 2: 5.6; 3: 5; 4: 0.115; 5: 26.7; 6: 4.7

// returns reported GI50 for input C(=N/Nc1ncnc2sc3c(c12)CCCC3)/c1cccc2ccccc12 [II-02]
8.6
